Read-out: Secreted IgG (sIgG), gene 3500
assay: BSK_BT_sIgG: BioMAP Diversity Plus: BT Assay for Secreted IgG (sIgG) Biomarker Activity (AID 2284226)
studyConditions: primary human B cells with PBMC
Active and inactive are the calls of the source. How the source made its calls: active means hit-call score of the fitted dose curve at least 0.9, where 1 is the maximum; inactive means score below 0.9.
Pick one: active, inactive

Solved entries (count: 6):
- compound: "CC(C)(C)c1cccc(O)c1"
  assignedLabel: "inactive"
- compound: "CCOC(=O)C=Cc1ccccc1"
  assignedLabel: "inactive"
- compound: "CC=CC(=O)C1=C(C)C=CCC1(C)C"
  assignedLabel: "inactive"
- compound: "CC(=O)CCC=C(C)CCC=C(C)C"
  assignedLabel: "active"
- compound: "C=C(F)C(=O)OC(C(F)(F)F)C(F)(F)F"
  assignedLabel: "inactive"
- compound: "COc1ccccc1NC(=O)CC(C)=O"
  assignedLabel: "inactive"

*Q* Just curious, what result did `C=C(C)C(=O)OCCC(F)(F)C(F)(F)C(F)(F)C(F)(F)C(F)(F)C(F)(F)C(F)(F)C(F)(F)F` get here?
*A* inactive

*Q* Just curious, what result did CC1=CC(C)C(C=O)C(C)C1 (configuration not stated) (tested in a mixture with another compound) get here?
*A* inactive

*Q* Just curious, what result did CC(C)Cc1ccc(C(C)C(=O)O)cc1 (configuration not stated) get here?
*A* inactive

*Q* Just curious, what result did `c1ccc2c(c1)-c1ccc3ccc4cccc5cc-2c1c3c45` get here?
*A* inactive

*Q* Just curious, what result did `CC1(C)[C@H](C=C(Cl)Cl)[C@H]1C(=O)OCc1cccc(Oc2ccccc2)c1` get here?
*A* inactive

*Q* Just curious, what result did CC(=O)OC(C)(C)C1CC=C(C)CC1 (configuration not stated) get here?
*A* inactive

*Q* Just curious, what result did `CCCCCCCCCCCCS` get here?
*A* inactive

*Q* Just curious, what result did `C=CC(=O)OCC(CO)(COC(=O)C=C)COC(=O)C=C` get here?
*A* active

*Q* Just curious, what result did `CCOC(=O)CCCCCCCCC(=O)OCC` get here?
*A* inactive

*Q* Just curious, what result did `CC(=O)OCC=C(C)CCC=C(C)CCC=C(C)C` get here?
*A* active

*Q* Just curious, what result did `NC(=O)c1c(Cl)cccc1Cl` get here?
*A* inactive

---

testTarget: Oxysterols receptor LXR-alpha (Homo sapiens)
assay: ATG_LXRa_TRANS: Attagene TRANS-FACTORIAL HepG2 Assay for human Liver X Receptor alpha (LXRa) (AID 2282980)
studyConditions: HepG2 Attagene TRANS reporter, LXRa transactivation
Inconclusive results are not listed. Active and inactive are the calls of the source. Rule for the calls: active = hit-call score of the fitted dose curve at least 0.9, where 1 is the maximum; inconclusive = response in the unintended direction; inactive = score below 0.9.
observable: outcome

Completed entries (count: 6):
- molecule: "CCC(C)(C)c1cc(O)c(C(C)(C)CC)cc1O"
  observable: "outcome"
  testResult: "inactive"
- molecule: "CC(C)(O)C(=O)c1ccc(OCCO)cc1"
  observable: "outcome"
  testResult: "inactive"
- molecule: "CC1=CC(C)C(C=O)C(C)C1 (configuration not stated) (tested in a mixture with another compound)"
  observable: "outcome"
  testResult: "inactive"
- molecule: "CCC(C)(CCCC(C)C)OC(C)=O (configuration not stated)"
  observable: "outcome"
  testResult: "inactive"
- molecule: "CC1=CCC(=C(C)C)CC1"
  observable: "outcome"
  testResult: "inactive"
- molecule: "Nc1ccc(O)c(N)c1"
  observable: "outcome"
  testResult: "inactive"

Switching to the query record.
*Q* Name the recorded outcome of the molecule listed here: `CCCCCCCCCCCCCC(=O)OCC`
*A* inactive
